Each recorded value in this set is attributed to the supplement of paper PMC9170038.

Test system: MS2 coat protein
Assay: apparent KD of MS2 coat protein; higher = weaker reporter binding
Settings: Eterna round: R107; input ligand: tryptophan 2.4 mM
Assign condition met whenever apparent KD of MS2 coat protein does not fall below 0.1 µM; assign condition not met whenever it does.

Solved entries (count: 2):
AAAAUAAAUAAAACACGUAACAUGAAGGAUACCAGCCAGAAAACUGGCCCUUGGCAGCCUCUACAUGAGGAUCACCCAUGUCGUG [Mat - Same State Theophlline A - Mod of Eli - D16]: condition met
AACAUGAGGAUCACCCAUGUCGGGCCGGUGCGAGGACCGGUACGGCCGCCACUCGAGACAUGAGGAUCACCCAUGUUGUGCGUGA [Exclusion Tryptophan A GF23]: condition met

Say whether UGAUCCUGCAGGGAUACCAGCGCCGCUUGAUAACUGUGCACAUGAGGAUCACCCAUGUAGCGCCCUUGGCAGCCCAGCUAGAGGG [Same State Theophylline B GF23] shows apparent KD of MS2 coat protein of 0.1 µM or more. condition not met

Say whether GGGUCCGUCGGAAGGAGCGACAUGAGGAUCACCCAUGUCUCCCGUUAUGGGAGUUCUUUAGGUCAGGUAGGUCGCCGGCGGGUCC [#1 Exclusion - Arginine B Attempt #13 (Inspired by Omei)] shows apparent KD of MS2 coat protein of 0.1 µM or more. condition met

Say whether UGUAUGUGAUCUGAUACCAGCUUUGAUAACCUGAGGAUCACCCUGGUAAGGCGAAAGCCAAGCCCUUGGCAGCAGAUCGCAUACU shows apparent KD of MS2 coat protein of 0.1 µM or more. condition not met
